- PROTOCOL_NOTES: Phase solubility studies with HP-β-CD
- Assay type: physicochemical
- EXPERIMENTAL_CONDITIONS: aqueous buffer, thermodynamic from solid; 25 °C, pH 8.5 sodium borate buffer, without cyclodextrin; read-out: solubility without HP-β-CD (value in brackets) (converted)
The entries below come with measured solubility at 60 min values attached.
Numbers only; they are read as µM.

COc1ccc(C2C/C(=N\NC(=O)c3ccccc3)c3c(O)cc(O)cc3O2)cc1O (racemic) [HHSB]: 25
COc1ccc(C2CC(=NNC(N)=S)c3c(O)cc(O)cc3O2)cc1O (stereo not shown) [HTSC]: 20
COc1ccc(C2C/C(=N\NC(=O)c3ccncc3)c3c(O)cc(O)cc3O2)cc1O (racemic) [HIN]: 20

Qu. Endpoint output: solubility at 60 min of COc1ccc(C2CC(=O)c3c(O)cc(O)cc3O2)cc1O (stereo not shown) [Hesperetin, 3′,5,7-Trihydroxy-4′-methoxyflavanone] . Value?
Ans. 280

====

Each item that follows carries a reported solubility at 60 min.
- PROTOCOL_NOTES: Phase solubility studies with HP-β-CD
- Assay type: physicochemical
- EXPERIMENTAL_CONDITIONS: aqueous buffer, thermodynamic from solid; 37 °C, pH 3.6 sodium acetate buffer, without cyclodextrin; read-out: solubility without HP-β-CD (value in brackets) (converted)
I only need the number, in µM, no unit after it.

COc1ccc(C2CC(=NNC(N)=S)c3c(O)cc(O)cc3O2)cc1O (stereo not shown): 28
COc1ccc(C2CC(=O)c3c(O)cc(O)cc3O2)cc1O (stereo not shown) [Hesperetin, 3′,5,7-Trihydroxy-4′-methoxyflavanone]: 80
COc1ccc(C2C/C(=N\NC(=O)c3ccncc3)c3c(O)cc(O)cc3O2)cc1O (racemic): 20

Now let's try a different one.
Qu. For the molecule COc1ccc(C2C/C(=N\NC(=O)c3ccccc3)c3c(O)cc(O)cc3O2)cc1O (racemic) , what solubility at 60 min is on record?
Ans. 20

====

- PROTOCOL_NOTES: Phase solubility studies with HP-β-CD
- Assay type: physicochemical
- EXPERIMENTAL_CONDITIONS: aqueous buffer, thermodynamic from solid; 25 °C, pH 3.6 sodium acetate buffer, without cyclodextrin; read-out: solubility without HP-β-CD (value in brackets) (converted)
- Protocol: The purpose of this part of the study was to determine the solubility of compounds of hesperetin and its Schiff bases (HHSB, HIN, and HTSC) in aqueous solution at different pHs and temperatures, and the effect of their inclusion in modified HP-β-CD on the aqueous solubility of these compounds at different pH values. […] Complexation efficiency was calculated from the slope of the phase solubility diagram using Equation (2):(2) CE=S0×Kc=slope/1−slope […]
In this section, each of the compounds is paired with its reported solubility at 60 min.
Answer with a number only, understood to be in µM.

# count of solved cases: 3
COc1ccc(C2C/C(=N\NC(=O)c3ccccc3)c3c(O)cc(O)cc3O2)cc1O (racemic) [HHSB]: 18
COc1ccc(C2CC(=O)c3c(O)cc(O)cc3O2)cc1O (stereo not shown) [Hesperetin, 3′,5,7-Trihydroxy-4′-methoxyflavanone]: 50
COc1ccc(C2C/C(=N\NC(=O)c3ccncc3)c3c(O)cc(O)cc3O2)cc1O (racemic) [HIN]: 29

Qu. What value of solubility at 60 min has been recorded for this entry: COc1ccc(C2CC(=NNC(N)=S)c3c(O)cc(O)cc3O2)cc1O (stereo not shown) [HTSC]
Ans. 17

====

// values below are reported CE complexation efficiency
- PROTOCOL_NOTES: Phase solubility studies with HP-β-CD
- Assay type: physicochemical
- EXPERIMENTAL_CONDITIONS: 60 °C, pH 8.5, with HP-β-CD
Numeric only. Scale: %

COc1ccc(C2C/C(=N\NC(=O)c3ccncc3)c3c(O)cc(O)cc3O2)cc1O (racemic): 3.7
COc1ccc(C2CC(=NNC(N)=S)c3c(O)cc(O)cc3O2)cc1O (stereo not shown): 0.1

Qu. Need CE complexation efficiency of COc1ccc(C2CC(=O)c3c(O)cc(O)cc3O2)cc1O (stereo not shown) [Hesperetin, 3′,5,7-Trihydroxy-4′-methoxyflavanone] , thanks.
Ans. 37

Qu. Further, for COc1ccc(C2C/C(=N\NC(=O)c3ccccc3)c3c(O)cc(O)cc3O2)cc1O (racemic) ?
Ans. 7

====

- PROTOCOL_NOTES: Phase solubility studies with HP-β-CD
- Format: physicochemical
- EXPERIMENTAL_CONDITIONS: thermodynamic from solid; 25 °C, pH 8.5 sodium borate buffer, with HP-β-CD; read-out: S0 (solubility with HP-β-CD)
The entries below come with measured solubility at 60 min values attached.

COc1ccc(C2C/C(=N\NC(=O)c3ccncc3)c3c(O)cc(O)cc3O2)cc1O (racemic) [HIN]: 90 µM
COc1ccc(C2CC(=NNC(N)=S)c3c(O)cc(O)cc3O2)cc1O (stereo not shown) [HTSC]: 70 µM
COc1ccc(C2CC(=O)c3c(O)cc(O)cc3O2)cc1O (stereo not shown) [Hesperetin, 3′,5,7-Trihydroxy-4′-methoxyflavanone]: 320 µM

// moving on: another record for solubility at 60 min
Qu. Name the recorded solubility at 60 min for COc1ccc(C2C/C(=N\NC(=O)c3ccccc3)c3c(O)cc(O)cc3O2)cc1O (racemic) [HHSB] .
Ans. 45 µM

====

- System: HaCaT cells
- PROTOCOL_NOTES: MTT cytotoxicity assay on HaCaT keratinocytes
- Format: cell-based, human
- EXPERIMENTAL_CONDITIONS: 48 h exposure
- Experimental: HaCaT keratinocyte cells were exposed to chemical compounds at nine different concentrations (from 3.9 to 995.6 µg/mL) in four replicates of each concentration for 24 and 48 h. All compounds were dissolved in sterile DMSO (Merck Life Science, Warsaw, Poland) and were sterile-filtered with 0.22 µm pore size sterile disposable syringe filters. […] The cytotoxicity was assessed with MTT assay according to methodology applied previously. […]
Known Non-cytotoxic concentration (IC0) of a selection of compounds

COc1ccc(C2CC(=NNC(N)=S)c3c(O)cc(O)cc3O2)cc1O (stereo not shown) [HTSC]: ≤ 3.9 µg/mL
COc1ccc(C2CC(=O)c3c(O)cc(O)cc3O2)cc1O (stereo not shown) [Hesperetin, 3′,5,7-Trihydroxy-4′-methoxyflavanone]: ≤ 3.9 µg/mL
COc1ccc(C2C/C(=N\NC(=O)c3ccncc3)c3c(O)cc(O)cc3O2)cc1O (racemic) [HIN]: ≤ 15.6 µg/mL

Turning now to a further compound:
Qu. Quick check: Non-cytotoxic concentration (IC0) of CC(O)COC[C@H]1O[C@@H]2O[C@H]3[C@H](O)[C@@H](O)[C@@H](O[C@H]4[C@H](O)[C@@H](O)[C@@H](O[C@H]5[C@H](O)[C@@H](O)[C@@H](O[C@H]6[C@H](O)[C@@H](O)[C@@H](O[C@H]7[C@H](O)[C@@H](O)[C@@H](O[C@H]8[C@H](O)[C@@H](O)[C@@H](O[C@H]1[C@H](O)[C@H]2O)O[C@@H]8COCC(C)O)O[C@@H]7COCC(C)O)O[C@@H]6COCC(C)O)O[C@@H]5COCC(C)O)O[C@@H]4COCC(C)O)O[C@@H]3COCC(C)O (stereo partly drawn) [HP-β-CD, (2-Hydroxypropyl)-β-cyclodextrin] ?
Ans. ≤ 3.9 µg/mL

====

Quick reference: solubility at 60 min of the listed items.
- PROTOCOL_NOTES: Phase solubility studies with HP-β-CD
- Assay type: physicochemical
- EXPERIMENTAL_CONDITIONS: thermodynamic from solid; 60 °C, pH 3.6 sodium acetate buffer, with HP-β-CD; read-out: S0 (solubility with HP-β-CD)
- Method: The purpose of this part of the study was to determine the solubility of compounds of hesperetin and its Schiff bases (HHSB, HIN, and HTSC) in aqueous solution at different pHs and temperatures, and the effect of their inclusion in modified HP-β-CD on the aqueous solubility of these compounds at different pH values. […] Complexation efficiency was calculated from the slope of the phase solubility diagram using Equation (2):(2) CE=S0×Kc=slope/1−slope […]
Could you give me the number in µM? Just the number is fine.

Below are worked cases with known answers.
COc1ccc(C2C/C(=N\NC(=O)c3ccncc3)c3c(O)cc(O)cc3O2)cc1O (racemic): 41
COc1ccc(C2CC(=NNC(N)=S)c3c(O)cc(O)cc3O2)cc1O (stereo not shown): 170
COc1ccc(C2CC(=O)c3c(O)cc(O)cc3O2)cc1O (stereo not shown) [Hesperetin, 3′,5,7-Trihydroxy-4′-methoxyflavanone]: 130

Kindly consider the entry below.
Qu. Give its solubility at 60 min value. Item: COc1ccc(C2C/C(=N\NC(=O)c3ccccc3)c3c(O)cc(O)cc3O2)cc1O (racemic)
Ans. 36

====

- PROTOCOL_NOTES: Phase solubility studies with HP-β-CD
- Assay type: physicochemical
- EXPERIMENTAL_CONDITIONS: 37 °C, pH 3.6, with HP-β-CD
Below is a list of entries, each paired with its recorded Kc complexation constant value.
Answer with a number only, understood to be in M⁻¹.

Qu. Quick check: Kc complexation constant of COc1ccc(C2CC(=NNC(N)=S)c3c(O)cc(O)cc3O2)cc1O (stereo not shown) [HTSC] ?
Ans. 16

Qu. What would you report for COc1ccc(C2CC(=O)c3c(O)cc(O)cc3O2)cc1O (stereo not shown) [Hesperetin, 3′,5,7-Trihydroxy-4′-methoxyflavanone] ?
Ans. 3171

Qu. Do the same for COc1ccc(C2C/C(=N\NC(=O)c3ccccc3)c3c(O)cc(O)cc3O2)cc1O (racemic) [HHSB] please
Ans. 226

Qu. Likewise for COc1ccc(C2C/C(=N\NC(=O)c3ccncc3)c3c(O)cc(O)cc3O2)cc1O (racemic) [HIN] ?
Ans. 145
